These data points were gathered from paper PMC8266232.

tested on: HeLa cells (cervical carcinoma); test: MTT antiproliferative assay, HeLa; type: cell-based, human; conditions: triplicate, read-out: In vitro cytotoxicity IC50, HeLa
PROPERTY NAME: pIC50
Please treat pIC50 as minus the base-10 logarithm of the molar concentration.

Q) Give recorded pIC50 with HeLa cells (cervical carcinoma) for the following compound: CCNc1nccc(-c2cc3ccccc3o2)c1C#N
A) 4.68

* * *

Recorded melting point for the following compounds

Example entries begin here.
N#Cc1c(-c2cc3ccccc3o2)ccnc1NC1CCCCC1 :: 186 to 188 °C
CCCCNc1nccc(-c2cc3ccccc3o2)c1C#N :: 112 to 114 °C
N#Cc1c(-c2cc3ccccc3o2)ccnc1NCc1ccccc1 :: 180 to 182 °C
COc1ccc(CCNc2nccc(-c3cc4ccccc4o3)c2C#N)cc1 :: 156 to 158 °C

Q) If you can, please state the reported melting point value of N#Cc1c(-c2cc3ccccc3o2)ccnc1NCCO .
A) 164 to 166 °C

Q) If you can, please state the reported melting point value of CCCNc1nccc(-c2cc3ccccc3o2)c1C#N .
A) 118 to 120 °C

Q) If you can, please state the reported melting point value of N#Cc1c(-c2cc3ccccc3o2)ccnc1NCCCO .
A) 124 to 126 °C

Q) If you can, please state the reported melting point value of CC(=C(C#N)C#N)c1cc2ccccc2o1 .
A) 140 to 142 °C

Q) If you can, please state the reported melting point value of CCNc1nccc(-c2cc3ccccc3o2)c1C#N .
A) 155 to 158 °C
